B1: PDZK1 (parent)
chain: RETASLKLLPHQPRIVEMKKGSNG

variants of: B1; assay: protein stability index of a GFP-peptide fusion (GPS, HEK-293T) (PSI 1-6); higher = more stable; conditions: c terminus: a fixed tail appended;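 also: lentivirally expressed fusions sorted by FACS into six bins by GFP to DsRed ratio, PSI derived from sequencing read proportions per bin multiplied by bin number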
Exercise: for every item that follows, state its recorded protein stability index.
Just the number, please.

Report protein stability index for S5C please.
3.2

Report protein stability index for R1M please.
2.38

Report protein stability index for A4F please.
2.66

Report protein stability index for K20A please.
3.46

Report protein stability index for K20L please.
3.61

Report protein stability index for A4C please.
3.12

Report protein stability index for G21P please.
3.77

Report protein stability index for K19C please.
2.29

Report protein stability index for T3D please.
3.39

Report protein stability index for G21R please.
3.9

Report protein stability index for R1N please.
3.8

Report protein stability index for L6Y please.
3.56

Report protein stability index for R14S please.
3.87

Report protein stability index for N23M please.
3.24

Report protein stability index for R14A please.
4.25

Report protein stability index for P13A please.
4.09

Report protein stability index for A4E please.
3.43

Report protein stability index for L8R please.
3.89

Report protein stability index for L9T please.
3.61

Report protein stability index for G21I please.
3.23

Report protein stability index for G21F please.
2.64

Report protein stability index for Q12A please.
3.54

Report protein stability index for R1H please.
3.14

Report protein stability index for E17S please.
3.67

Report protein stability index for S5T please.
3.39

Report protein stability index for N23W please.
3.12

Report protein stability index for P13S please.
3.92

Report protein stability index for E17G please.
3.48

Report protein stability index for L9C please.
3.75

Report protein stability index for E2Q please.
3.73
